# key: entry, value: intrinsic clearance, human liver microsomes

Here is how some compounds turned out for intrinsic clearance, human liver microsomes.
CCN1CCN(c2ccc(Nc3ncnc4sccc34)cc2)CC1 ... ≤ 4.74 mL/min/kg
CNC(=O)c1cccc(Oc2ncnc3c2CN(C)CC3)c1 ... ≤ 4.74 mL/min/kg

// moving on: another record for intrinsic clearance, human liver microsomes
Please look up its intrinsic clearance, human liver microsomes: `O=C(NC[C@]1(O)CCN(Cc2cccs2)C[C@H]1O)c1c[nH]cn1`
≤ 4.74 mL/min/kg

----------
Recorded endpoint: intrinsic clearance, rat liver microsomes

C[C@@H](NC(=O)N1CCC2(CCN(C)CC2)C1)c1ccc(F)cc1 ... ≤ 10.7 mL/min/kg
Cc1nn(C)c(C)c1CNc1ccc(N2CCN(C)CC2)nc1 ... ≤ 10.7 mL/min/kg
Cc1cc(C)n2ncc(C(=O)Nc3cccc(C(=O)O)c3)c2n1 ... ≤ 10.7 mL/min/kg
Cc1nc(N2CCN(C)CC2)nc(C)c1NC(=O)C1CCCCC1 ... ≤ 10.7 mL/min/kg

Here's the next entry for you.
Request the reported intrinsic clearance, rat liver microsomes associated with `CC(C)c1ccc2occ(CC(=O)O)c2c1`
≤ 10.7 mL/min/kg

----------
Recorded endpoint: intrinsic clearance, human liver microsomes

Some compounds with known intrinsic clearance, human liver microsomes results, for comparison:
Cn1cc(C(=O)O)c(C2CCCCC2)n1 ... ≤ 4.74 mL/min/kg
CC(C)C(=O)N1CCn2nc(CNC3CCc4ccccc4CC3)cc2C1 ... ≤ 4.74 mL/min/kg
C[C@@]1(c2ncncc2F)NC(=O)c2cc(-c3cn[nH]c3)ccc21 ... ≤ 4.74 mL/min/kg

Using the record for `Cc1cnc(NCc2ccccc2-n2ccnc2)nc1N(C)C` , report its intrinsic clearance, human liver microsomes.
33.7 mL/min/kg

Proceed to `COCC(=O)Nc1cc(C#N)cn1C(C)(C)C`
≤ 4.74 mL/min/kg

Ok, now `CCCNC(=O)C1(NCc2cncnc2)CCCCC1`
43.2 mL/min/kg

Now the compound `O=C(NCCN1CCc2ccccc2C1=O)c1ccon1`
≤ 4.74 mL/min/kg

What do you have for `O=C(Nc1ccc(C(=O)O)c(O)c1)c1ccc(NC(=O)c2cccs2)cc1` ?
≤ 4.74 mL/min/kg

----------
- Measurement context: pH 6.8
Recorded endpoint: aqueous solubility (µg/mL)
Respond numerically; units are µg/mL and should not be typed.

COc1cccc2c1OC(C)(C)[C@@H]1C[C@H]3CNCC[C@H]3O[C@@H]21 ... 53.4

State the recorded aqueous solubility for this entry: `O=C(CCc1ccc2c(c1)OCO2)Nc1cccc2cnccc12`
44.7

Then this compound: `CCc1nc(C)c(Cn2ccnc2-c2cnc(N3CCCC3)nc2)s1`
35

Another compound to check: `CC(C)S(=O)(=O)c1ccc2nccc(Nc3ccc4scnc4c3)c2c1`
38.5

----------
Measured log10 of intrinsic clearance, rat liver microsomes by item
Log10 applied to intrinsic clearance, rat liver microsomes; unit prior to transform: mL/min/kg.

These recorded examples may help you get a feel for the data.
CC(C)COc1ccc(C(C)(C)NCc2nnc(C3CCC3)o2)cc1 ... 3.49
Cc1cc2occ(CC(=O)NC3CCN(C)CC3)c2cc1C(C)C ... 2.61
CC1(C)[C@@H]2C[C@H]1[C@@]1(O)[C@@H](C2)Oc2c(ccc(O)c2C(=O)NCCNS(C)(=O)=O)[C@@H]1O ... 2.13
CS(=O)(=O)NC1CCN(C(=O)NCCc2ccc(F)cc2)CC1 ... 1.79
Cc1cc(F)ccc1-c1nc(CCn2c(C)nc3ccccc32)no1 ... 3.26

For `O=C(CSc1ccc(F)cc1)N1CCCC1` , what is its reported log10 of intrinsic clearance, rat liver microsomes?
2.07

Also, `CCC1(CC)NC(=O)N(CC(=O)N2CCOCC3(CCCC3)C2)C1=O` please.
2.34

Values from the Biogen ADME set (Fang et al. 2023)
